test: Mouse liver S9 stability; type: in vitro ADME; settings: CD-1, mouse, mouse liver S9 subcellular fraction, half-life in mouse liver S9 fraction; read-out: Mouse S9 t1/2

>  <compound>
O=[N+]([O-])c1cn2c(n1)OC[C@@H](NCc1ccc(OC(F)(F)F)cc1)C2

>  <half-life>
> 5.83 h

$$$$
>  <compound>
O=[N+]([O-])c1cn2c(n1)SC(COCc1ccc(OCc3ccccc3)cc1)C2 (centres unmarked)

>  <half-life>
< 1.17 h

$$$$
>  <compound>
CC1(COCc2ccc(OCc3ccccc3)cc2)Cn2cc([N+](=O)[O-])nc2[S+]1[O-] (centres unmarked)

>  <half-life>
< 1.17 h

$$$$
>  <compound>
CN1CC(OCc2ccc(OCc3ccccc3)cc2)Cn2nc([N+](=O)[O-])cc21 (centres unmarked)

>  <half-life>
< 1.17 h

$$$$
>  <compound>
O=[N+]([O-])c1cn2c(n1)[S+]([O-])CC(OCc1ccc(OC(F)(F)F)cc1)C2 (centres unmarked)

>  <half-life>
> 5.83 h

$$$$
